Reference for the values: patent US5932227A

experiment: concentration in blood of tulobuterol upon administering to a rat, compared with oral administration; assay type: in vivo; conditions: oral 10 mg/kg, 12 hr
Readout: concentration in blood of tulobuterol (ng/mL)

* CC(C)(C)NCC(O)c1ccccc1Cl (stereo not shown) [tulobuterol] | 0

----------
assay: concentration in blood of tulobuterol upon administering to a rat, compared with oral administration; format: in vivo; settings: blood, oral 10 mg/kg
Readout: AUC

- CC(C)(C)NCC(O)c1ccccc1Cl (stereo not shown) [tulobuterol]: 91000 ng·h/mL

----------
test: concentration in blood of tulobuterol upon administering to a rat, compared with oral administration; type: in vivo; details: oral 10 mg/kg, 24 hr
Readout: concentration in blood of tulobuterol (ng/mL)

* CC(C)(C)NCC(O)c1ccccc1Cl (stereo not shown) | 0
